Data origin, for the record: patent US20220242950A1

For each entry below, report its IC50 of IL-1β signaling (HEK-Blue assay) value.
TESTED_ON: T1, human IL1RAP on the cell surface (human, UniProt Q9NPH3 21-570)
T1 sequence (looked up): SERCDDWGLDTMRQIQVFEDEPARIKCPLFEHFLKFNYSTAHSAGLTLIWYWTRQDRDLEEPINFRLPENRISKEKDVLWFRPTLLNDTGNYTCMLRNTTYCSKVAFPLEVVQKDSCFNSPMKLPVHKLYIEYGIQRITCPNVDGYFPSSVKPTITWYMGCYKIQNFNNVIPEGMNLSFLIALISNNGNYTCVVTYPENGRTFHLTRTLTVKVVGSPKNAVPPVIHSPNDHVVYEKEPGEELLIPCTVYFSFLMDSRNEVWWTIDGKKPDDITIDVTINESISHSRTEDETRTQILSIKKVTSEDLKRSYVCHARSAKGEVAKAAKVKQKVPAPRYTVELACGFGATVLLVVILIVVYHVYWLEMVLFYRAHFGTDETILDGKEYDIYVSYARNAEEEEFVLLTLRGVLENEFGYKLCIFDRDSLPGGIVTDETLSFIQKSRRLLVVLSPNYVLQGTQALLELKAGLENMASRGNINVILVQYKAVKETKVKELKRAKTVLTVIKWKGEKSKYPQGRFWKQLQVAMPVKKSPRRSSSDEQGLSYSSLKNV
TEST_NAME: cell-based or functional assay
One number for each entry, in nM.

Give measured IC50 of IL-1β signaling (HEK-Blue assay) for every item shown.
1. h48D2 VH4:VL2 (antibody, human IgG1, kappa, L234A L235A, V domains shown, Humanized; also called VL2:VH4) VH: QVQLQESGPGLVKPSETLSLTCTVSGPSLSHFDITWIRQPPGKGLEWIGTISPGVSTYYASWAKSRFTISVDTSKNQFSLKLTSVTAADTATYYCARGGVGSSWKAFDLWGPGTLVTVSS VL: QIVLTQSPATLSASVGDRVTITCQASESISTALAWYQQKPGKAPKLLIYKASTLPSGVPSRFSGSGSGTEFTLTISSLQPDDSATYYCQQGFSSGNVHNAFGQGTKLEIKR
2. h48D2 VH3:VL1 (antibody, human IgG1, kappa, L234A L235A, V domains shown, Humanized; also called VL1:VH3) VH: EVQLLESGGGLVLPGGSLRLSCAASGPSLSHFDITWVRQAPGKGLEWVSTISPGVSTYYASWAKSRFTISRDNSKNTLYLQMSSLRAEDTAVYYCARGGVGSSWKAFDLWGLGTTVTVSS VL: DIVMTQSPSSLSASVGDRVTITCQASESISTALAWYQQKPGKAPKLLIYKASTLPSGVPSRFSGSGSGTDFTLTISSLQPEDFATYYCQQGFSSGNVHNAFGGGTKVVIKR

A:
5.55
9.54

Q: Can you share its IC50 of IL-1β signaling (HEK-Blue assay)? I mean this binder: h48D2 VH1:VL4 (antibody, human IgG1, kappa, L234A L235A, V domains shown, Humanized; also called VL4:VH1) VH: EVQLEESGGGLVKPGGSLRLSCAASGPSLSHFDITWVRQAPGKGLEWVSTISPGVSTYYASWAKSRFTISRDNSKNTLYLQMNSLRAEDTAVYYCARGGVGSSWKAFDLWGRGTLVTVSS VL: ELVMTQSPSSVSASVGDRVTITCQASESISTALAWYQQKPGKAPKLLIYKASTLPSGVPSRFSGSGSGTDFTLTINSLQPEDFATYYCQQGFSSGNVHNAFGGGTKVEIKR
A: 14.6
